method: molar heat capacity at constant pressure
condition_parameters: 120 K; 101.33 kPa; Crystal
Classify as follows. Reported molar heat capacity at constant pressure greater than or equal to 200 J/K/mol: true. Reported molar heat capacity at constant pressure below: false.

>>> print(df.to_string())
                                   compound  classification
0   CCCCCCCCCCCC(=O)OC [methyl dodecanoate]           false
1  CCCCCCCCCCCCCCC(=O)OC [methyl pentadecanoate]            true
2  CCCCCCCCCCCCCCCCC(=O)OC [methyl heptadecanoate]            true
3  CCCCCCCCCCCCCCCCCC(=O)OC [methyl octadecanoate]            true
4        CCCCCCCCC(=O)OC [methyl nonanoate]           false
